Experiment: Cytotoxicity against human C3PV cells assessed as reduction in cell viability incubated for 24 hrs by MTT assay
Format: toxicity, cell-based
Settings: human, C3PV cells
Assign labels as follows, please: fulfilled for IC50 at 24 h below 20 µM; not fulfilled for IC50 at 24 h equal to or exceeding 20 µM.

[
  {
    "COMPOUND": "C[C@H]1[C@H](OC(=O)CCC(=O)Oc2ccc3oc(=O)ccc3c2)O[C@@H]2C[C@]3(C)CC[C@H]4[C@H](C)CC[C@@H]1[C@@]24OO3",
    "ASSIGNED LABEL": "not fulfilled"
  },
  {
    "COMPOUND": "O=c1ccc2ccc(O)cc2o1",
    "ASSIGNED LABEL": "not fulfilled"
  },
  {
    "COMPOUND": "Nc1ccc2c(C(F)(F)F)cc(=O)oc2c1",
    "ASSIGNED LABEL": "not fulfilled"
  },
  {
    "COMPOUND": "C[C@H]1[C@H](OC(=O)CCC(=O)Oc2cc3ccccc3oc2=O)O[C@@H]2C[C@]3(C)CC[C@H]4[C@H](C)CC[C@@H]1[C@@]24OO3",
    "ASSIGNED LABEL": "fulfilled"
  },
  {
    "COMPOUND": "CC(=O)O[C@H]1C(=O)[C@@]2(C)[C@H]([C@H](OC(=O)c3ccccc3)[C@]3(O)C[C@H](OC(=O)[C@H](O)[C@@H](NC(=O)c4ccccc4)c4ccccc4)C(C)=C1C3(C)C)[C@]1(OC(C)=O)CO[C@@H]1C[C@@H]2O",
    "ASSIGNED LABEL": "not fulfilled"
  },
  {
    "COMPOUND": "Cc1cc(=O)oc2cc(O)ccc12",
    "ASSIGNED LABEL": "fulfilled"
  },
  {
    "COMPOUND": "O=c1cc(O)c2ccccc2o1 [4-HYDROXYCOUMARINS]",
    "ASSIGNED LABEL": "fulfilled"
  }
]

###

Test: Selectivity index, ratio of IC50 for cytotoxicity against human C3PV cells to IC50 for anticancer activity against human SK-MEL3 cells
Format: toxicity, cell-based
Conditions: C3PV cells and SK-MEL3 cells, read-out: Ratio IC50
Cut-off 20 on selectivity ratio: below means 1, at or above means -1.

[
  {
    "COMPOUND": "C[C@H]1[C@H](OC(=O)CCC(=O)Oc2cc3ccc(=O)oc3cc2O)O[C@@H]2C[C@]3(C)CC[C@H]4[C@H](C)CC[C@@H]1[C@@]24OO3",
    "ASSIGNED LABEL": -1
  },
  {
    "COMPOUND": "Cc1cc(=O)oc2cc(O)ccc12",
    "ASSIGNED LABEL": 1
  },
  {
    "COMPOUND": "Nc1ccc2c(C(F)(F)F)cc(=O)oc2c1",
    "ASSIGNED LABEL": -1
  },
  {
    "COMPOUND": "C[C@H]1[C@H](OC(=O)CCC(=O)Oc2ccc3c(C(F)(F)F)cc(=O)oc3c2)O[C@@H]2C[C@]3(C)CC[C@H]4[C@H](C)CC[C@@H]1[C@@]24OO3",
    "ASSIGNED LABEL": -1
  },
  {
    "COMPOUND": "C[C@H]1[C@H](OC(=O)CCC(=O)Nc2ccc3c(C(F)(F)F)cc(=O)oc3c2)O[C@@H]2C[C@]3(C)CC[C@H]4[C@H](C)CC[C@@H]1[C@@]24OO3",
    "ASSIGNED LABEL": 1
  },
  {
    "COMPOUND": "O=c1ccc2ccc(O)cc2o1",
    "ASSIGNED LABEL": 1
  },
  {
    "COMPOUND": "C[C@H]1[C@H](OC(=O)CCC(=O)Oc2cc(=O)oc3ccccc23)O[C@@H]2C[C@]3(C)CC[C@H]4[C@H](C)CC[C@@H]1[C@@]24OO3",
    "ASSIGNED LABEL": -1
  },
  {
    "COMPOUND": "O=c1oc2ccccc2cc1O [3-HYDROXYCOUMARIN]",
    "ASSIGNED LABEL": 1
  },
  {
    "COMPOUND": "C[C@H]1[C@H](OC(=O)CCC(=O)Oc2ccc3ccc(=O)oc3c2)O[C@@H]2C[C@]3(C)CC[C@H]4[C@H](C)CC[C@@H]1[C@@]24OO3",
    "ASSIGNED LABEL": -1
  },
  {
    "COMPOUND": "O=c1cc(C(F)(F)F)c2ccc(O)cc2o1",
    "ASSIGNED LABEL": 1
  },
  {
    "COMPOUND": "O=c1cc(O)c2ccccc2o1 [4-HYDROXYCOUMARINS]",
    "ASSIGNED LABEL": 1
  },
  {
    "COMPOUND": "CC(=O)O[C@H]1C(=O)[C@@]2(C)[C@H]([C@H](OC(=O)c3ccccc3)[C@]3(O)C[C@H](OC(=O)[C@H](O)[C@@H](NC(=O)c4ccccc4)c4ccccc4)C(C)=C1C3(C)C)[C@]1(OC(C)=O)CO[C@@H]1C[C@@H]2O",
    "ASSIGNED LABEL": 1
  },
  {
    "COMPOUND": "O=c1ccc2cc(O)ccc2o1 [6-HYDROXYCOUMARIN]",
    "ASSIGNED LABEL": 1
  },
  {
    "COMPOUND": "COc1cc2ccc(=O)oc2cc1OC(=O)CCC(=O)O[C@@H]1O[C@@H]2C[C@]3(C)CC[C@H]4[C@H](C)CC[C@@H]([C@H]1C)[C@@]24OO3",
    "ASSIGNED LABEL": 1
  },
  {
    "COMPOUND": "O=c1ccc2cc(O)c(O)cc2o1",
    "ASSIGNED LABEL": 1
  }
]

###

Test system: SK-MEL-28
Assay: Anticancer activity against human SK-MEL-28 cells assessed as reduction in cell viability incubated for 24 hrs by MTT assay
Type: functional, cell-based
Conditions: SK-MEL-28, 24 h
pIC50: −log10 of the molar value.

[
  {
    "COMPOUND": "O=c1cc(O)c2ccccc2o1 [4-HYDROXYCOUMARINS]",
    "ASSAYED TARGET": "SK-MEL-28",
    "pIC50": 5.89
  },
  {
    "COMPOUND": "O=c1ccc2cc(O)ccc2o1 [6-HYDROXYCOUMARIN]",
    "ASSAYED TARGET": "SK-MEL-28",
    "pIC50": 6.35
  },
  {
    "COMPOUND": "C[C@H]1[C@H](OC(=O)CCC(=O)Oc2cc3ccccc3oc2=O)O[C@@H]2C[C@]3(C)CC[C@H]4[C@H](C)CC[C@@H]1[C@@]24OO3",
    "ASSAYED TARGET": "SK-MEL-28",
    "pIC50": 4.42
  },
  {
    "COMPOUND": "C[C@H]1[C@H](OC(=O)CCC(=O)Oc2cc(=O)oc3ccccc23)O[C@@H]2C[C@]3(C)CC[C@H]4[C@H](C)CC[C@@H]1[C@@]24OO3",
    "ASSAYED TARGET": "SK-MEL-28",
    "pIC50": 4.14
  },
  {
    "COMPOUND": "C[C@H]1[C@H](OC(=O)CCC(=O)Oc2ccc3ccc(=O)oc3c2)O[C@@H]2C[C@]3(C)CC[C@H]4[C@H](C)CC[C@@H]1[C@@]24OO3",
    "ASSAYED TARGET": "SK-MEL-28",
    "pIC50": 5.66
  },
  {
    "COMPOUND": "O=c1ccc2cc(O)c(O)cc2o1 [ESCULETIN]",
    "ASSAYED TARGET": "SK-MEL-28",
    "pIC50": 6.02
  },
  {
    "COMPOUND": "Cc1cc(=O)oc2cc(OC(=O)CCC(=O)O[C@@H]3O[C@@H]4C[C@]5(C)CC[C@H]6[C@H](C)CC[C@@H]([C@H]3C)[C@@]46OO5)ccc12",
    "ASSAYED TARGET": "SK-MEL-28",
    "pIC50": 4.87
  }
]

###

Assay: Selectivity index, ratio of IC50 for cytotoxicity against human C3PV cells to IC50 for anticancer activity against human SK-MEL3 cells
Type: toxicity, cell-based
Details: C3PV cells and SK-MEL3 cells, read-out: Ratio IC50

[
  {
    "SMILES TEXT": "C[C@H]1[C@H](OC(=O)CCC(=O)Oc2cc3ccccc3oc2=O)O[C@@H]2C[C@]3(C)CC[C@H]4[C@H](C)CC[C@@H]1[C@@]24OO3",
    "selectivity ratio": 5.64
  },
  {
    "SMILES TEXT": "COc1cc2ccc(=O)oc2cc1O",
    "selectivity ratio": 1.1
  },
  {
    "SMILES TEXT": "C[C@H]1[C@H](OC(=O)CCC(=O)Oc2ccc3oc(=O)ccc3c2)O[C@@H]2C[C@]3(C)CC[C@H]4[C@H](C)CC[C@@H]1[C@@]24OO3",
    "selectivity ratio": 8810
  },
  {
    "SMILES TEXT": "Cc1cc(=O)oc2cc(OC(=O)CCC(=O)O[C@@H]3O[C@@H]4C[C@]5(C)CC[C@H]6[C@H](C)CC[C@@H]([C@H]3C)[C@@]46OO5)ccc12",
    "selectivity ratio": 0.25
  }
]
